# Species on record: Rattus norvegicus
# protocol text: Open TG-GATES - Regimen: Single
# Type: toxicity, organism-based, Sprague-Dawley
# Set-up: regimen Single, gender Male, age 6 weeks
# reported conditions: in vivo, po, 100 mg/kg, 9 h, tissue Blood, route gavage, dose level Low
reported endpoint: APTT (s)
Unit s implied. Number only.

Recorded APTT for CCc1cc(C(N)=S)ccn1 [ETHIONAMIDE] , please?
18.1

Field request: APTT | item: O=C(O)c1cn(C2CC2)c2cc(N3CCNCC3)c(F)cc2c1=O
16.2

Consider the compound Clc1ccccc1CN1CCc2sccc2C1 and give its measured APTT.
17.3

// APTT lookup, key: O=C(O)c1cc(/N=N/c2ccc(S(=O)(=O)Nc3ccccn3)cc2)ccc1O
19.3

Requested read-out: APTT. Entry: C[C@H](CS)C(=O)N1CCC[C@H]1C(=O)O
16.3
